tested on: Caspase 3; assay: Caspase 3 detection assay in SJSA1 cells; format: cell-based; settings: 30 μM, SJSA1, 48 h, Caspase 3 activation over DMSO-treated cells
Bridge positions count the residues as written; N and C are the ends. Square brackets hold non-standard residues; d marks the D form. Peptide text beside a SMILES is read from it. R8 = C=CCCCCCC[C@@](C)(N)C(=O)O; S5 = C=CCCC[C@](C)(N)C(=O)O
recordedMetric: caspase 30 μM
Please state the value as a number alone, without comment.

Ask | caspase 30 μM lookup needed for CC(=O)N[C@@H](CC(C)C)C(=O)N[C@H](C(=O)N[C@@H](Cc1ccccc1)C(=O)N[C@]1(C)CCCCCCC=CCCC[C@@](C)(C(=O)N[C@@H](C)C(=O)N[C@@H](Cc2c[nH]cn2)C(=O)N[C@@H](Cc2ccccc2)C(=O)N[C@@H](C)C(N)=O)NC(=O)[C@H](CC(C)C)NC(=O)[C@H](CCC(N)=O)NC(=O)[C@H](C)NC(=O)[C@H](Cc2c[nH]c3ccccc23)NC(=O)[C@H](Cc2ccc(O)cc2)NC(=O)[C@H](C)NC1=O)[C@@H](C)O [compound 50] (Ac-LTF[R8]AYWAQL[S5]AHFA-NH2; staple 4-11) , thanks.
Reply | 29

Recorded values, source patent US20200369728A1.
